target: Death-associated protein kinase 1 (Homo sapiens); settings: at 1 µM;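 note: each value is a mean inhibition figure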
Measured inhibition by item
Give the quantity in %, number only.

COc1cc(Nc2ncc(-c3ccccc3)o2)cc(OC)c1 = -0.73
COC(=O)Nc1nc2ccc(Oc3ccc(NC(=O)Nc4cc(C(F)(F)F)ccc4F)cc3)cc2s1 = -1.22
CS(=O)(=O)Nc1ccc(-c2ccc3c(NC(=O)C4CC4)n[nH]c3c2)cc1 = 4.64
Cc1ccc(-c2cc3c(NC(=O)C4CC4)ncnc3o2)cc1 = 4.66
O=C(Nc1n[nH]c2nnc(-c3cccnc3)cc12)C1CC1 = -2.01
Fc1ccc(Nc2nccc(-c3c(-c4ccc(C(F)(F)F)cc4)nn4ncccc34)n2)cc1F = 4.85
CN(c1ccc(NC(=O)NCCN2CCOCC2)cc1)c1ccnc(Nc2ccc(CS(C)(=O)=O)cc2)n1 = 4.97
CCS(=O)(=O)c1ccc(OC)c(Nc2ncc(-c3cccc(C(C)=O)c3)o2)c1 = 3.26

Prompt: If you can, please state the reported inhibition value of NC(=O)c1ccc2c(-c3ccnc(NCCCO)n3)c(-c3ccc(F)cc3)nn2c1 .
Response: 15.1

Prompt: Can you check CS(=O)(=O)CCNCc1ccoc1-c1ccc2ncnc(Nc3ccc(OCc4ccccc4)cc3)c2c1 next?
Response: -0.75
